target: panel of 255 wild-type kinases (Homo sapiens, UniProt P50613); assay: Kinase panel profiling at 1 µmol/L (MSA or IMAP), percentage inhibition; assay type: biochemical; conditions: CDK7/CycH/MAT1 kinase assay; 1 µmol/L single concentration; read-out: %-inhibition CDK7/CycH/MAT1
Sequence (P50613 whole entry): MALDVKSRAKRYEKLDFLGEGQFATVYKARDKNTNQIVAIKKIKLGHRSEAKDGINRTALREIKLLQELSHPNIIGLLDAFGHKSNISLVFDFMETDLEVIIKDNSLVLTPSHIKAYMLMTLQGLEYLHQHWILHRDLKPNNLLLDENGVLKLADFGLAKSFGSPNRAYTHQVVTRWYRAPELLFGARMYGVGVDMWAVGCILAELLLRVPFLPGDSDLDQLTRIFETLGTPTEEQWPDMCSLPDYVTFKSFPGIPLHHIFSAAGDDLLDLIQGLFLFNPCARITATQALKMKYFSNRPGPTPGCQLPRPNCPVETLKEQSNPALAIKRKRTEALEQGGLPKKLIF
Property Label: inhibition at 1 µM (%)
One number for each entry, in %.

Cc1nc(NC(=O)N2CCC[C@H]2C(N)=O)sc1-c1ccnc(C(C)(C)C(F)(F)F)c1 [alpelisib] ... -4

List inhibition at 1 µM for every entry below, keeping the order given.
1. O=C(Nc1cnn2ccc(N3CCC[C@@H]3c3cc(F)ccc3F)nc12)N1CC[C@H](O)C1 [larotrectinib]
2. CCN1CCN(c2ccc(Nc3cc(N(C)C(=O)Nc4c(Cl)c(OC)cc(OC)c4Cl)ncn3)cc2)CC1 [infigratinib]

Result:
1. -8
2. 9

Answer for every listed entry: what is its inhibition at 1 µM? The entries follow.
1. COC(=O)N[C@@H](C)CNc1nccc(-c2cn(C(C)C)nc2-c2cc(Cl)cc(NS(C)(=O)=O)c2F)n1 [encorafenib]
2. C=CC(=O)N1CCC([C@@H]2CCNc3c(C(N)=O)c(-c4ccc(Oc5ccccc5)cc4)nn32)CC1 [zanubrutinib]
3. FC(F)(F)c1ccc(CNc2ccc(Cc3c[nH]c4ncc(Cl)cc34)cn2)cn1 [pexidartinib]
4. C[C@H](Nc1ncnc2nc[nH]c12)c1cc2cccc(Cl)c2c(=O)n1-c1ccccc1 [duvelisib]
5. Cn1cc(-c2cc3c(N4CCN(c5ncc([C@@](C)(N)c6ccc(F)cc6)cn5)CC4)ncnn3c2)cn1 [avapritinib]

Result:
1: -6.5; 2: -9; 3: 22; 4: -5.41; 5: 0.833

Please give inhibition at 1 µM, item by item, for the list that follows.
1. Cc1cc(Nc2ncnc3ccc(NC4=NC(C)(C)CO4)cc23)ccc1Oc1ccn2ncnc2c1 [tucatinib]
2. Cn1cnc2c(F)c(Nc3ccc(Br)cc3F)c(C(=O)NOCCO)cc21 [binimetinib]
3. CN1CCN(c2ccc(C(=O)Nc3n[nH]c4ccc(Cc5cc(F)cc(F)c5)cc34)c(NC3CCOCC3)c2)CC1 [entrectinib]
4. Cn1cnc2c(F)c(Nc3ccc(Br)cc3Cl)c(C(=O)NOCCO)cc21 [selumetinib]

Result:
1. 6
2. -5
3. 27
4. 1.7

# map each compound to its inhibition at 1 µM
1. COc1cc2ncnc(Nc3ccc(F)c(Cl)c3)c2cc1NC(=O)/C=C/CN1CCCCC1 [dacomitinib]
2. CCN1C(=O)N(c2c(F)c(OC)cc(OC)c2F)Cc2cnc3[nH]c(CN4CCOCC4)cc3c21 [pemigatinib]
3. CO[C@]1(C(=O)N[C@@H](C)c2ccc(-n3cc(F)cn3)nc2)CC[C@H](c2nc(C)cc(Nc3cc(C)[nH]n3)n2)CC1 [pralsetinib]
4. CCn1c(=O)c(-c2cc(NC(=O)Nc3ccccc3)c(F)cc2Br)cc2cnc(NC)cc21 [ripretinib]
5. COc1ccc(CN2C3CC2CN(c2ccc(-c4cc(OCC(C)(C)O)cn5ncc(C#N)c45)cn2)C3)cn1 [selpercatinib]

Result:
1: 3.35; 2: -12; 3: 19; 4: -1.48; 5: 6

Recorded values, source paper PMC9516332.
